Entry source: the supplement of paper PMC8540655

Reported larval motility by item:
Tested on: Aedes aegypti larvae
protocol.text: larval motility relative to same well at 0 h (fraction); higher = more motile (less active compound), active = 0.4 or less
measurement.parameters: 10 µM; 2 h

Sample records with larval motility:
| compound | larval motility |
| --- | --- |
| NC(=O)[C@@H]1CC[C@@H]2CN1C(=O)N2OS(=O)(=O)O | 1.06 (inactive) |
| COc1ccc(COc2cc3oc(=O)c4cc(C(C)O)ccc4c3cc2OC)cc1 (stereo unspecified) | 1.02 (inactive) |
| NC(=O)c1cnc2ccc(S(=O)(=O)c3ccccc3)cc2c1Nc1ccc(O)cc1 | 1.25 (inactive) |
| CC(C)N(c1cc(-c2ccccc2)sc1C(=O)O)C(=O)[C@H]1CC[C@H](C)CC1 | 0.697 (inactive) |
| CN(O)C(=O)c1cc2c(CN3CCC[C@H]3C(N)=O)cn(Cc3ccc(F)cc3)c2cn1 | 0.668 (inactive) |
| COc1ccc2cc3[n+](cc2c1OCCN(CCn1cncn1)Cc1ccc(F)cc1F)CCc1cc2c(cc1-3)OCO2 | 0.821 (inactive) |
| Cc1oncc1C(=O)Nc1ccc(C(F)(F)F)cc1 | 0.743 (inactive) |
| Cc1c(OCC(F)(F)F)ccnc1CS(=O)c1nc2ccccc2[nH]1 (stereo unspecified) | 1.17 (inactive) |

# larval motility lookup, item CCC(C)NCC(O)Cn1c2ccc(Cl)cc2c2cc(Cl)ccc21 (stereo unspecified) 0.799 (inactive)

# larval motility lookup, item N#Cc1cc([N+](=O)[O-])ccc1Oc1ccccc1Cl 1.05 (inactive)

# larval motility lookup, item O=C(O)c1ccccc1Sc1ncnc2sc3c(c12)CCC3 0.968 (inactive)
